Recorded TGI, one value per entry.
- Tested on: SNB-19 CNS
- experiment: NCI tumour cell line growth inhibition, 48 h
Write the value in µM as a bare number.

get_value(item= C=C1CC2(CC(c3ccccc3OC)OC(c3ccccc3OC)C2)OC1=O (centres undefined) , readout=TGI) returns 14

In plain terms, CCOc1cc(F)c([N+](=O)[O-])cc1[N+](=O)[O-] has a documented TGI of 13.3

* * *

- System: HS 578T breast
- experiment: NCI tumour cell line growth inhibition, 48 h
readout label: GI50

// worked examples, GI50 included
INSERT INTO assay_data (smiles_notation, readout_label, reading) VALUES
  ('COc1cc(Nc2ccnc(NCCNc3ccnc4cc(Cl)ccc34)n2)cc(OC)c1', 'GI50', '2.18 µM'),
  ('Oc1c(Br)cc(Br)c2ccc(Cn3cc(-c4ccc(C(F)(F)F)cc4)nn3)nc12', 'GI50', '3.03 µM'),
  ('COc1ccc(-c2cn[nH]c2-c2cc(OC)c(OC)c(OC)c2)cc1OCc1ccccc1', 'GI50', '2.23 µM');

Measured GI50, O=C(Nc1ccc2[nH]c3ccccc3c2c1)c1ccccc1Cl : 3.84 µM

According to the records, this compound COc1ccc(/C(C)=C(\c2ccc(Cl)cc2)c2ccc(OCCN3CCCCC3)cc2)cc1 displays GI50 of 5.16 µM

Form: compound = CNC(=O)c1ccccc1Nc1cc(Nc2ccc(N3CCOCC3)cc2OC)ncc1C(F)(F)F ; GI50 = 13.5 µM

The compound listed as COc1ccc2c(c1)/C(=N/OC(C)=O)c1c-2c(Nc2cccc(/C(C)=N/OC(C)=O)c2)nc2ccccc12 has a reported GI50 of 40.3 µM

The compound listed as NC(N)=NN=C(c1ccccc1)c1ccccc1 has a reported GI50 of 1.78 µM

In plain terms, S=C(S)NCCNC(=S)S.[Cu+2] has a documented GI50 of > 100 µM

# compound N#CC1(Nc2ccc(Br)cc2)CCCC1 ; its GI50 = > 100 µM

Item: CC[C@H](C)[C@H](NC(=O)c1ccccn1)C(=O)N(C)[C@H](C[C@@H](OC(C)=O)c1nc(C(=O)N[C@@H](Cc2ccccc2)C[C@H](C)C(=O)OC)cs1)C(C)C | GI50: 12.8 µM

* * *

TGI values by entry
- Test system: DMS 114 small cell lung
- experiment: NCI tumour cell line growth inhibition, 48 h

Worked cases, TGI given:
INSERT INTO measurements (smiles_notation, reading) VALUES
  ('O=C(CC(=O)n1nc(-c2ccccc2)c(N=Nc2ccccc2Cl)c1-c1ccccc1)Nc1ccc(Cl)cc1', '> 56.6 µM'),
  ('NC(N)=NS(=O)(=O)c1ccc(NC(=O)c2cccc3c(=O)c4ccccc4[nH]c23)cc1', '> 100 µM');

Record O=C(CCc1nnc2s/c(=C\c3ccccc3[N+](=O)[O-])c(=O)n12)Nc1cc(Cl)c(Cl)cc1Cl . Reported TGI: > 100 µM

Sample COC1=C(C)C(=O)C2=C(C1=O)[C@@H]1[C@@H]3Cc4c(OC(=O)CO)c(C)c(OC)c(O)c4[C@H](CNC(=O)C(C)=O)N3[C@@H](C#N)[C@H](C2)N1C ; TGI observed: < 0.01 µM

* * *

- Tested on: HOP-92 NSCLC
- experiment: NCI tumour cell line growth inhibition, 48 h
readout label: TGI

INSERT INTO assay_data (smiles_notation, readout_label, reading) VALUES
  ('O=[N+]([O-])c1ccc2c(c1)c1nn2CCCCOc2nn(c3ccc([N+](=O)[O-])cc23)CCCCO1', 'TGI', '> 100 µM'),
  ('CCCCCC(=O)Nc1n[nH]nc1C#N', 'TGI', '> 100 µM');

Next compound, TGI to be filled in.
Looking up NC(N)=NS(=O)(=O)c1ccc(NC(=O)c2cccc3c(=O)c4ccccc4[nH]c23)cc1 , I found its TGI recorded as > 96.2 µM
